Test system: PEO1
Assay: Cytotoxicity against human PEO1 cells assessed as inhibition of cell growth after 72 hrs by ATPlite assay
Type: functional, cell-based
Conditions: PEO1, 72 h
compounds and their reported IC50
value.kind: IC50

{"structure": "CC1=C(C#N)C(O)=NC(=O)/C1=C\\c1ccc(-c2ccccc2)o1", "result": "44 µM"}
{"structure": "CC(=O)O[C@H]1C(=O)[C@@]2(C)[C@H]([C@H](OC(=O)c3ccccc3)[C@]3(O)C[C@H](OC(=O)[C@H](O)[C@@H](NC(=O)c4ccccc4)c4ccccc4)C(C)=C1C3(C)C)[C@]1(OC(C)=O)CO[C@@H]1C[C@@H]2O", "result": "7 µM"}
